measured-on: IKBKB (IKKβ) (Homo sapiens)
Sequence (O14920 whole entry): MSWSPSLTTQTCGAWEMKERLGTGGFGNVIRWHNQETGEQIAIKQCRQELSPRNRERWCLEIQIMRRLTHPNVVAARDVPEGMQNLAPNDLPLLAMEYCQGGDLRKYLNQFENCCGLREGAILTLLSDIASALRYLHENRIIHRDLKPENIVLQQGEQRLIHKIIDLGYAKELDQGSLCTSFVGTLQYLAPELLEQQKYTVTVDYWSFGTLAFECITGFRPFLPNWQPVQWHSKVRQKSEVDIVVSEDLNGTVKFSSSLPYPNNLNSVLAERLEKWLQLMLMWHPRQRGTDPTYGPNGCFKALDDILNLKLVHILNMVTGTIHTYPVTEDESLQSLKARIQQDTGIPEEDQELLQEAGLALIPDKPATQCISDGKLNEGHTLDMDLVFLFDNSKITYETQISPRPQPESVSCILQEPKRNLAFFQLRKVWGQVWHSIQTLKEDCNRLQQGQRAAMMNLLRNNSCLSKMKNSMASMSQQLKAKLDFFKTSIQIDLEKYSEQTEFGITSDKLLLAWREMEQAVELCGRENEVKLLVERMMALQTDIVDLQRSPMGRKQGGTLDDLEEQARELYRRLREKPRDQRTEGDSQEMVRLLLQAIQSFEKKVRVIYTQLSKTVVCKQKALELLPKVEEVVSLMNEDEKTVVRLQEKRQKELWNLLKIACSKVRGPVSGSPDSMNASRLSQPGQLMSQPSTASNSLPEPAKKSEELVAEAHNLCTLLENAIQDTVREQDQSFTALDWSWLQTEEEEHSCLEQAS
pIC50: −log10 of the molar value.
pIC50 overview

Here are 6 compounds together with their reported answers.
NC(=O)Nc1sc(-c2cccc(CN[C@H](C(=O)OC3CCCC3)C3CCCCC3)c2)cc1C(N)=O [Example 10] = 5.30 to 6.00
CC(C)C[C@H](NC/C=C/c1ccc(-c2cc(C(N)=O)c(NC(N)=O)s2)c(C(F)(F)F)c1)C(=O)OC1CCCC1 [Example 39] = < 5.30
CC(C)C[C@H](NCCc1ccc(-c2cc(C(N)=O)c(NC(N)=O)s2)cc1)C(=O)OC1CCCC1 [Example 16] = 5.30 to 6.00
NC(=O)Nc1sc(-c2ccc(/C=C/CN[C@H](C(=O)OC3CCCC3)c3ccccc3)cc2)cc1C(N)=O [Example 41] = > 6.00
CC(C)C[C@H](NC/C=C/c1ccc(-c2cc(C(N)=O)c(NC(N)=O)s2)cc1C(F)(F)F)C(=O)OC1CCCC1 [Example 36] = 5.30 to 6.00
Cc1cc(-c2cc(C(N)=O)c(NC(N)=O)s2)ccc1/C=C/CN[C@@H](CC(C)C)C(=O)O [Example 70] = > 6.00

Next up:
q: Name the recorded pIC50 for C[C@@H](O)[C@H](NCc1cccc(-c2cc(C(N)=O)c(NC(N)=O)s2)c1)C(=O)O [Example 61] .
a: > 6.00

* * *

The following compounds are shown together with reported IC50 values.
Test system: THP-1 cells
method: LPS-Stimulation of THP-1 Cells, TNF-α release
Assay type: cell-based
assay-conditions: Homo sapiens, LPS 1 μg/ml, 6 hrs, read-out: Inhibitor activity versus THP-1 TNFα release

Look over these answered cases.
CC(C)C[C@H](NC/C=C/c1ccc(-c2cc(C(N)=O)c(NC(N)=O)s2)cc1Cl)C(=O)OC1CCCC1 = < 1 µM
CC(C)C[C@H](NCCCCCOc1ccc(-c2cc(C(N)=O)c(NC(N)=O)s2)cc1)C(=O)OC1CCCC1 = 1 to 5 µM

q: # get_value(readout='IC50', item= NC(=O)Nc1sc(-c2ccc(CN[C@@H](C(=O)OC3CCCC3)c3ccccc3)cc2)cc1C(N)=O )
a: > 5 µM

q: # get_value(readout='IC50', item= NC(=O)Nc1sc(-c2cccc(CN[C@H](C(=O)OC3CCCC3)C3CCCCC3)c2)cc1C(N)=O )
a: < 1 µM

* * *

System: THP-1 cells
method: LPS-Stimulation of THP-1 Cells, TNF-α release
Assay type: cell-based
assay-conditions: Homo sapiens, LPS 1 μg/ml, 6 hrs, read-out: Inhibitor activity versus THP-1 TNFα release
pIC50: −log10 of the molar value.
result-type: pIC50

Consider the worked cases shown below.
CC(C)C[C@H](NC/C=C/c1ccc(-c2cc(C(N)=O)c(NC(N)=O)s2)cc1)C(=O)OC1CCCC1 = > 6.00
CC(C)C[C@H](NCc1cccc(-c2cc(C(N)=O)c(NC(N)=O)s2)c1)C(=O)OC(C)(C)C = > 6.00
NC(=O)Nc1sc(-c2ccc(/C=C/CN[C@H](C(=O)OC3CCCC3)c3ccccc3)cc2)cc1C(N)=O = 5.30 to 6.00

Please look at the following compound next.
q: Endpoint output: pIC50 of CC(C)(C)OC[C@H](NCc1cccc(-c2cc(C(N)=O)c(NC(N)=O)s2)c1)C(=O)OC1CCCC1 . Value?
a: 5.30 to 6.00

* * *

Tested on: THP-1 cells
method: LPS-Stimulation of THP-1 Cells, TNF-α release
Type: cell-based
assay-conditions: Homo sapiens, LPS 1 μg/ml, 6 hrs, read-out: Inhibitor activity versus THP-1 TNFα release
pIC50: −log10 of the molar value.
This section presents compounds with their documented pIC50 values.

Below, 4 compounds whose answers are already recorded.
NC(=O)Nc1sc(-c2ccc(CN[C@@H](Cc3ccccc3)C(=O)OC3CCCC3)cc2)cc1C(N)=O = < 5.30
CC(C)C[C@H](NC/C=C/c1cccc(-c2cc(C(N)=O)c(NC(N)=O)s2)c1)C(=O)OC1CCCC1 = > 6.00
CC(C)C[C@H](NCCc1cc(-c2cc(C(N)=O)c(NC(N)=O)s2)ccc1F)C(=O)OC1CCCC1 = 5.30 to 6.00
Cc1cc(/C=C/CN[C@@H](CC(C)C)C(=O)OC2CCCC2)ccc1-c1cc(C(N)=O)c(NC(N)=O)s1 = > 6.00

q: Field: pIC50 (THP-1 cells). Entry: C[C@@H](O)[C@H](NCc1cccc(-c2cc(C(N)=O)c(NC(N)=O)s2)c1)C(=O)OC1CCCC1
a: > 6.00

q: GET /values?readout=pIC50&system=THP-1 cells&item= CC(C)C[C@H](NC/C=C/c1ccc(-c2cc(C(N)=O)c(NC(N)=O)s2)c(F)c1)C(=O)OC1CCCC1
a: 5.30 to 6.00

* * *

Listed here: items and their measured pIC50.
Tested on: human whole blood
method: LPS-Stimulation of Human Whole Blood, TNF-α release
Assay type: cell-based
assay-conditions: LPS 100 ng/ml, 6 hrs, read-out: Inhibitor activity versus human whole blood TNFα release
pIC50: −log10 of the molar value.

C[C@@H](OC(C)(C)C)[C@H](NC/C=C/c1ccc(-c2cc(C(N)=O)c(NC(N)=O)s2)cc1)C(=O)OC1CCCC1 = < 5.30
CC(C)C[C@H](NCCc1cc(-c2cc(C(N)=O)c(NC(N)=O)s2)ccc1F)C(=O)OC1CCCC1 = 5.30 to 6.00

q: Could you tell me which pIC50 is on file for CC(C)(C)OC[C@H](NCCc1cccc(-c2cc(C(N)=O)c(NC(N)=O)s2)c1)C(=O)OC1CCCC1 ?
a: 5.30 to 6.00

* * *

Below are IC50 values recorded for IKBKB (IKKβ) (Homo sapiens, UniProt O14920).

Please review the following examples before continuing.
CC(C)C[C@H](NCc1cccc(-c2cc(C(N)=O)c(NC(N)=O)s2)c1)C(=O)O = < 1000 nM
CC(C)C[C@@H](NC/C=C/c1ccc(-c2cc(C(N)=O)c(NC(N)=O)s2)cc1)C(=O)OC1CCCC1 = < 1000 nM
CC(C)C[C@H](NC/C=C/c1ccc(-c2cc(C(N)=O)c(NC(N)=O)s2)cc1)C(=O)OC(C)(C)C = < 1000 nM
CC(C)(C)OC[C@H](NC/C=C/c1ccc(-c2cc(C(N)=O)c(NC(N)=O)s2)cc1)C(=O)O = < 1000 nM
CC(C)C[C@H](NCCc1ccc(-c2cc(C(N)=O)c(NC(N)=O)s2)cc1)C(=O)O = < 1000 nM

q: GET /values?readout=IC50&item= Cc1cc(-c2cc(C(N)=O)c(NC(N)=O)s2)ccc1/C=C/CN[C@@H](CC(C)C)C(=O)OC1CCCC1
a: 1000 to 5000 nM

q: Report IC50 for NC(=O)Nc1sc(-c2ccc(/C=C/CN[C@H](C(=O)OC3CCCC3)C3CCCCC3)cc2)cc1C(N)=O please.
a: < 1000 nM

q: Give the measured IC50 of CC(C)C[C@H](NC/C=C/c1ccc(-c2cc(C(N)=O)c(NC(N)=O)s2)cc1F)C(=O)O .
a: < 1000 nM

q: Using the record for CC(C)C[C@H](NCc1ccc(-c2cc(C(N)=O)c(NC(N)=O)s2)c(Cl)c1)C(=O)O , report its IC50.
a: < 1000 nM

q: Consider the compound shown here: CC(C)C[C@H](NC/C=C/c1ccc(-c2cc(C(N)=O)c(NC(N)=O)s2)c(Cl)c1)C(=O)OC1CCCC1 What is its recorded IC50?
a: 1000 to 5000 nM

q: Tell me the measured IC50 of NC(=O)Nc1sc(-c2cccc(CCN[C@H](C(=O)OC3CCCC3)c3ccccc3)c2)cc1C(N)=O , please.
a: < 1000 nM

* * *

measured-on: IKBKB (IKKβ) (Homo sapiens)
Construct: purchased Invitrogen (Paisley, UK)
method: IKKβ Enzyme Assay (Z'-LYTE, Invitrogen)
Format: biochemical
assay-conditions: ATP at or close to Km; read-out: Inhibitor activity versus IKKβ
pIC50: −log10 of the molar value.
Here the recorded pIC50 is given for each entry.

The cases that follow already have their pIC50 on record.
CC(C)C[C@H](NCCCCCOc1ccc(-c2cc(C(N)=O)c(NC(N)=O)s2)cc1)C(=O)OC1CCCC1 = > 6.00
CC(C)C[C@H](NCCCOc1ccc(-c2cc(C(N)=O)c(NC(N)=O)s2)c(Cl)c1)C(=O)OC1CCCC1 = 5.30 to 6.00

q: What value of pIC50 has been recorded for this entry: CC(C)C[C@H](NCc1cccc(-c2cc(C(N)=O)c(NC(N)=O)s2)c1)C(=O)OC(C)(C)C
a: > 6.00

* * *

System: THP-1 cells
method: LPS-Stimulation of THP-1 Cells, TNF-α release
Type: cell-based
assay-conditions: Homo sapiens, LPS 1 μg/ml, 6 hrs, read-out: Inhibitor activity versus THP-1 TNFα release
pIC50: −log10 of the molar value.
result-type: pIC50

NC(=O)Nc1sc(-c2cccc(CN[C@H](C(=O)OC3CCCC3)c3ccccc3)c2)cc1C(N)=O = > 6.00
CC(C)C[C@H](NCCCCCOc1ccc(-c2cc(C(N)=O)c(NC(N)=O)s2)c(Cl)c1)C(=O)OC1CCCC1 = 5.30 to 6.00
CC(C)C[C@H](NCc1cccc(-c2cc(C(N)=O)c(NC(N)=O)s2)c1)C(=O)OC1CCCC1 = > 6.00
CC(C)C[C@H](NC/C=C/c1ccc(-c2cc(C(N)=O)c(NC(N)=O)s2)cc1C(F)(F)F)C(=O)OC1CCCC1 = < 5.30
CC(C)C[C@H](NCCc1ccc(-c2cc(C(N)=O)c(NC(N)=O)s2)cc1)C(=O)OC1CCCC1 = 5.30 to 6.00
CC(C)C[C@H](NC/C=C/c1ccc(-c2cc(C(N)=O)c(NC(N)=O)s2)cc1F)C(=O)OC1CCCC1 = 5.30 to 6.00
NC(=O)Nc1sc(-c2cccc(CCN[C@H](C(=O)OC3CCCC3)c3ccccc3)c2)cc1C(N)=O = > 6.00
CC(C)C[C@H](NC/C=C/c1ccc(-c2cc(C(N)=O)c(NC(N)=O)s2)cc1)C(=O)OC(C)(C)C = 5.30 to 6.00
CC(C)C[C@H](NC/C=C/c1cc(F)c(-c2cc(C(N)=O)c(NC(N)=O)s2)cc1F)C(=O)OC1CCCC1 = 5.30 to 6.00
NC(=O)Nc1sc(-c2ccc(CN[C@H](C(=O)OC3CCCC3)c3ccc4ccccc4c3)cc2)cc1C(N)=O = < 5.30

Read the next record carefully.
q: // fetch THP-1 cells pIC50 for CC(C)C[C@H](NCCCOc1ccc(-c2cc(C(N)=O)c(NC(N)=O)s2)cc1)C(=O)OC1CCCC1
a: 5.30 to 6.00
